// provenance: patent US10517889B2

- System: human SMAD7 mRNA
- testDescription: Antisense inhibition of human SMAD7 mRNA expression in Hep3B cells by 3-10-3 cEt gapmers, 10,000 nM, electroporation (Example 2)
- Format: cell-based
- testSettings: Hep3B cells, 10,000 nM antisense oligonucleotide, electroporation, approximately 24 hours, RT-PCR primer probe set RTS5062, relative to untreated control cells
- Procedure: Antisense oligonucleotides were designed to target human SMAD7 mRNA and were tested for their effects on SMAD7 mRNA expression in vitro. […] After a treatment period of approximately 24 hours, RNA was isolated from the cells and SMAD7 mRNA levels were measured by quantitative real-time PCR. […] SMAD7 mRNA levels were adjusted according to total RNA content, as measured by RIBOGREEN®. […]
Strand notation (5' to 3'): a small letter for the sugar, then the base; units joined by * are phosphorothioate-linked, units joined directly phosphodiester-linked; [ ] holds rarer units or linkages, { } end groups; capitals alone tell only the bases. k = constrained ethyl (cEt); [5mC] = 5-methylcytosine; d = 2'-deoxy (DNA)
measuredQuantity: % Inhibition (%)
Just the number in %, nothing appended.

The following substances have reported results that may help.
substance="798840 (k[5mC]*kT*k[5mC]*dT*dT*dG*dT*dT*dG*dT*d[5mC]*d[5mC]*dG*kA*kA*kT; antisense) [compound 798840]" measuredquantity="% Inhibition" assayvalue=56
substance="799958 (antisense kG*kT*kG*dG*dA*dG*dA*dG*dT*dG*d[5mC]*dT*dG*k[5mC]*kA*k[5mC]) [compound 799958]" measuredquantity="% Inhibition" assayvalue=23
substance="799915 (antisense kG*k[5mC]*kT*dG*dA*d[5mC]*dG*d[5mC]*dG*dG*d[5mC]*dT*dT*k[5mC]*k[5mC]*kT) [compound 799915]" measuredquantity="% Inhibition" assayvalue=52
substance="799916 (antisense k[5mC]*kA*k[5mC]*dA*dA*dA*dT*d[5mC]*dA*dA*dA*dA*dG*k[5mC]*kT*k[5mC]) [compound 799916]" measuredquantity="% Inhibition" assayvalue=47
substance="798910 (k[5mC]*kA*k[5mC]*dG*d[5mC]*dG*dG*d[5mC]*dT*dA*d[5mC]*d[5mC]*dG*kG*k[5mC]*kT; antisense) [compound 798910]" measuredquantity="% Inhibition" assayvalue=42

Name the recorded % Inhibition for 772628 (kG*k[5mC]*k[5mC]*dT*dT*dG*dA*dT*dG*dG*dA*dG*dA*kA*kA*k[5mC]; antisense) [compound 772628] .
33

Record: 800053 (antisense k[5mC]*kT*kA*d[5mC]*dA*d[5mC]*d[5mC]*dA*dA*dA*dG*dA*d[5mC]*k[5mC]*kT*kG) [compound 800053]
63

Record: 799953 (antisense kA*kG*kA*dA*dA*dA*dT*dG*d[5mC]*d[5mC]*d[5mC]*dA*d[5mC]*k[5mC]*kA*kG) [compound 799953]
0

Record: 800075 (antisense kT*kA*kA*dT*dT*dT*dT*d[5mC]*d[5mC]*dT*d[5mC]*dA*dA*k[5mC]*kA*kG) [compound 800075]
55

Record: 800050 (antisense kG*k[5mC]*kT*dT*dA*dT*dT*dT*dT*d[5mC]*d[5mC]*d[5mC]*dA*kA*kT*kT) [compound 800050]
10

Record: 798826 (k[5mC]*kT*k[5mC]*d[5mC]*dT*dG*dG*dA*d[5mC]*dA*d[5mC]*dA*dG*kT*kA*kG; antisense) [compound 798826]
14

Record: 799894 (antisense kT*k[5mC]*k[5mC]*d[5mC]*dA*dA*d[5mC]*dT*dG*dG*dG*d[5mC]*dA*kG*k[5mC]*kT) [compound 799894]
2

Record: 798897 (kG*kG*k[5mC]*dG*dG*dG*dT*dG*dT*dA*dG*d[5mC]*dA*k[5mC]*kT*kG; antisense) [compound 798897]
60
